experimental_readout: melting point

Reference set (5 entries):
- mol: "COc1ccc2[nH]c(C)c(CC(=O)N/N=C/c3cc(OC)c(OC)cc3OC)c2c1"
  melting point: "238 to 240 °C"
- mol: "COc1cccc(/C=N/NC(=O)Cc2c(C)[nH]c3ccc(OC)cc23)c1"
  melting point: "195 to 197 °C"
- mol: "COc1ccc(/C=N/NC(=O)Cc2c(C)[nH]c3ccc(OC)cc23)c(OC)c1"
  melting point: "170 to 172 °C"
- mol: "COc1ccc2[nH]c(C)c(CC(=O)N/N=C/c3ccc(Cl)cc3Cl)c2c1"
  melting point: "238 to 240 °C"
- mol: "COc1ccc2[nH]c(C)c(CC(=O)N/N=C/c3ccc(Cl)cc3)c2c1"
  melting point: "180 to 182 °C"

Task: Return the recorded melting point value; entry: COc1ccc2[nH]c(C)c(CC(=O)N/N=C/c3ccccc3OC)c2c1
Result: 220 to 222 °C

Task: Return the recorded melting point value; entry: COc1cc(OC)c(/C=N/NC(=O)Cc2c(C)[nH]c3ccc(OC)cc23)c(OC)c1
Result: 230 to 232 °C

Task: Return the recorded melting point value; entry: COc1ccc2[nH]c(C)c(CC(=O)N/N=C/c3ccc(OC)c(OC)c3)c2c1
Result: 210 to 212 °C

Task: Return the recorded melting point value; entry: COc1ccc2[nH]c(C)c(CC(=O)N/N=C/c3cccc(O)c3)c2c1
Result: 145 to 147 °C

Task: Return the recorded melting point value; entry: COc1ccc2[nH]c(C)c(CC(=O)N/N=C/c3cc(OC)c(OC)c(OC)c3)c2c1
Result: 233 to 235 °C
